For each of the molecules below, state its IC50.
- system-tested: hA2b (Homo sapiens (Human), UniProt P29275)
- Sequence (P29275 whole entry): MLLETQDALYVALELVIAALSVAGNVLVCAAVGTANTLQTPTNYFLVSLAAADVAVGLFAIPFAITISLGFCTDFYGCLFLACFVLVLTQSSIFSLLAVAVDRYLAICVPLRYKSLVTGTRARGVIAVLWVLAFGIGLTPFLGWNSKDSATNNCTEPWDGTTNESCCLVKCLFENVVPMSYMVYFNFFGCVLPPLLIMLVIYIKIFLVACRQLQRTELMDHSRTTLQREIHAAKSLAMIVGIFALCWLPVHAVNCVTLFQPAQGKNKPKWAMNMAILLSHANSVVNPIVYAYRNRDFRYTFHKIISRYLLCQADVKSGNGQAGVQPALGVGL
- assay-details: cAMP inhibition assay in hA2b/CHO cells
- Format: cell-based
- cond: adenosine stimulation, read-out: cAMP & FLIPR IC50 (nM) hA2b

So what's the measured IC50 for this one? Cc1cnc2ccc(-c3c(N(C)C)nc(N)n4nc(Cc5ncccc5F)nc34)cn12
38 nM

So what's the measured IC50 for this one? Cn1cc(-c2c(-c3ncco3)nc(N)n3nc(Cc4ncccc4OC(F)F)nc23)ccc1=O
102 nM

So what's the measured IC50 for this one? CC(C)n1cc(-c2c(-c3ccc(F)cc3)nc(N)n3nc(Cc4ncccc4F)nc23)ccc1=O
101 nM

So what's the measured IC50 for this one? Cn1cc(-c2c(-c3ccccn3)nc(N)n3nc(Cc4c(F)cccc4F)nc23)ccc1=O
680 nM

So what's the measured IC50 for this one? Nc1nc(-c2ccc(F)cc2)c(-c2ccc3nncn3c2)c2nc(Cc3ncccc3F)nn12
1050 nM

So what's the measured IC50 for this one? Nc1nc(-c2ncco2)c(-c2ccnc(OC(F)F)c2)c2nc(Cc3c(F)cccc3F)nn12
48 nM

So what's the measured IC50 for this one? Cc1cc(-c2c(-c3ccc(F)cc3)nc(N)n3nc(Cc4cccc(N(C)C)n4)nc23)ccn1
4790 nM

So what's the measured IC50 for this one? Cn1cc(-c2c(-c3ccc(C(F)F)cc3)nc(N)n3nc(Cc4ncccc4F)nc23)ccc1=O
259 nM
